# protocol text: Lipophilicity, logP in n-octanol/PBS of radiolabeled PSMA inhibitors
# Type: physicochemical
# study conditions: pH 7.4; distribution coefficient in n-octanol/PBS, radiolabeled inhibitor; mean ± SD (n = 6); read-out: logP
# Procedure: The radiolabeled PSMA inhibitor (0.5 to 1.0 MBq) dissolved in PBS (500 μL, pH=7.4), was added to n-octanol (500 μL) in a reaction vial (1.5 mL), which was rigorously vortexed for 3 min (n=6). For quantitative phase separation, the mixture was centrifuged at 6,000 g for 5 min (Biofuge 15, Heraus Sepatech, Osterode, Germany). The activity from samples of each phase (100 μL) were measured in a γ-counter to obtain the log P(o/w) value.
measurement name: logP

{"compound": "O=C(O)CC[C@H](NC(=O)N[C@@H](CCC(=O)NC(CCCNC(=O)c1ccc(NC(=O)CC[C@@H](NC(=O)[C@@H](Cc2ccc3ccccc3c2)NC(=O)[C@@H](Cc2ccc(O)cc2)NC(=O)[C@H](CNC(=O)CCC(C(=O)O)N2CCN(CC(=O)O)CCN(CC(=O)O)CCN(CC(=O)O)CC2)NC(=O)c2ccc([N+](=O)[O-])cc2[N+](=O)[O-])C(=O)O)cc1)C(=O)O)C(=O)O)C(=O)O (stereo partly shown)", "test value": -4.15}
